ASSAY TARGET: Ribonuclease pancreatic (Bos taurus)
TEST: Binding affinity to RNase A by fluorescence quenching
RECORDED METRIC: Kb

COMPOUND	ASSAY TARGET	RESULT
Oc1ccc([C@H]2c3c(O)cc(O)cc3O[C@H](c3ccc(O)c(O)c3)[C@@H]2O)c(O)c1	Ribonuclease pancreatic (Bos taurus)	2.42 ×10⁴ /M

For the molecule Oc1cc(O)c([C@@H]2c3c(O)cc(O)cc3O[C@H](c3ccc(O)c(O)c3)[C@@H]2O)c(O)c1 , what Kb is on record?
3.14 ×10⁴ /M

What value of measured Kb is listed for Oc1cc(O)c([C@H]2c3c(O)cc(O)cc3O[C@H](c3ccc(O)c(O)c3)[C@@H]2O)c(O)c1 ?
6.76 ×10⁴ /M

Bench note: what Kb did Oc1ccc([C@@H]2c3c(O)cc(O)cc3O[C@H](c3ccc(O)c(O)c3)[C@H]2O)c(O)c1 show?
1.37 ×10⁴ /M

Origin of the recorded values: ChEMBL document CHEMBL1221325
